# Experimental System: T1, human DR3 with the death domain deleted (ΔM339-P417 of SEQ ID NO:1), expressed on CHOK1SV cells (human, UniProt Q93038 25-338)
# T1 construct: also called truncated DR3; hDR3 expressing CHO cells
# T1 sequence: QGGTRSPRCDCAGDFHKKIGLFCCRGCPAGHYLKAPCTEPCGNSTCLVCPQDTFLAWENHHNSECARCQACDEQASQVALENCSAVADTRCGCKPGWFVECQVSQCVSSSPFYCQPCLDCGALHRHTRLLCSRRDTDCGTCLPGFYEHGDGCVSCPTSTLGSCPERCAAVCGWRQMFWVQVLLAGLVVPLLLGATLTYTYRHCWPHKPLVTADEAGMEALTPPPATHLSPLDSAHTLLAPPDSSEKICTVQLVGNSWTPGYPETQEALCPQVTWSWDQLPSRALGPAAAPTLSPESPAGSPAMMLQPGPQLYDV
# Procedure Details: flow cytometry competition: Fab vs TL1A on hDR3-expressing CHO cells
Readout Kind: max percentage inhibition
Put down the number, then write its unit next to it.

{"Binder": "0130 (recombinant murine Fab of 45F36) (Fab, V domains shown, murine Fab; also called 00130) VH: EVQLVESGGGLVKPGGSLKLSCAASGFTFSSYAMSWVRQSPDKRLEWVAEISSGDTYTYYPDTVTGRFTISRDNAKKTLYLEMSGLRSEDTAMYYCARDREAYYGQQYVMDYWGQGTSVTVSS VL: DIVLTQSPASLAVSLGLSVTISCRASESIEYSGTSFLQWYQQKPGQPPRLLIYGSSTVESGVPARFSGSGSGTDFSLNIHPVEEDDSAMYFCQQSRRLPWTFGGGTKLEIKR", "Readout Kind": "max percentage inhibition", "Result": "73%"}
{"Binder": "0124 (chimeric Fab of 28F26, human IgG4 constant domain, hinge Cys->Ser) (Fab, V domains shown, murine variable domains, human IgG4 constant domain (IgG4-Ser)) VH: EVKVVESGGGLVKPGGSLKLSCAASGFVFSSYDMSWVRQIPEKRLEWVAAISSGDYYTYYPDSVKGRFTISRDDARNTLYLQMSSLRSEDTALYYCARHRGGNYPQYAMDYWGQGTSVTVSS VL: DILLTQSPASFAVSLGQRATISCRASKSVSTSGYNYIHWYQQKPGQPPKLLIYLTSNLESGVPARFSGSGSGTDFTLNIHPVEEEDAATYYCQHSRELPFTFGSGTKLEIKR", "Readout Kind": "max percentage inhibition", "Result": "79%"}

Attention now shifts to the item below.
Ask: Item 0143 (chimeric Fab of 44F434, human IgG4 constant domain, hinge Cys->Ser) (Fab, V domains shown, IgG4-Ser, chimeric) VH: EVQLVESGGDLVMPGGSLKLSCAASGFIFSSYGLSWIRQTPDKRLEWVATISGGDSYTYYPDSVKGRFTISSDNAKNTLYLQMTSLKSEDTAMYYCATQREIYYGTYYALDHWGQGTSVTVSS VL: DIQMTQTTSSLSASLGDRVTISCRASQDINNYLNWYQQKPDGTVKLLIYYTSRLQSGVPSRFSGSGSGTDYSLTISSLEQDDIATYFCQQGSPLPWTFGGGTKLEIKR : provide max percentage inhibition
Reply: 76%
